Entry source: PubChem BioAssay (NCI)

# Test system: RPMI-8226 leukemia
# procedure.text: NCI-60 one-dose screen, 48 h (100 = growth as untreated, 0 = no growth, -100 = all killed)
# condition.context: 10 µM unless noted
The panel holds about 83,000 compounds, 20% with a hit somewhere; the sample as a whole holds those more often.
Classify on growth using class 0 = under 20%, class 1 = from 20% up to 80%, class 2 = 80% and over

{"columns": ["compound", "label.value"],
 "data": [
  ["Cc1ccc(Cl)c(NS(=O)(=O)c2ccc(-c3cnc(C4CC4)o3)cc2)c1", "class 0"],
  ["c1c[nH]c(CNC2CCCCC2)c1", "class 2"],
  ["CN(c1ccccc1)c1ccc2c(c1)OCCC21CC1Nc1cnccc1C(=O)O (stereo not given)", "class 2"],
  ["CCC(CO)Nc1nc2ccc(Cl)cc2c2ccccc12 (stereo not given)", "class 1"],
  ["Cn1c(I)c(C#C[Si](C)(C)C)c(=O)n(C(=O)c2ccccc2)c1=O", "class 0"],
  ["c1ccc(-c2nc([P+](c3ccccc3)(c3ccccc3)c3ccccc3)c(N3CCOCC3)o2)cc1", "class 0"],
  ["C=CCNc1nc(NN2C(=O)c3cccc4cccc(c34)C2=O)nc(-n2cnc3ccccc32)n1", "class 1"],
  ["CCN(CC)Cc1cccc(C(=O)OC)c1", "class 2"],
  ["COc1ccc(OC)c(-c2c(C#N)c(-c3ccc(Cl)cc3)nc3c2c(-c2ccccc2)nn3-c2ccccc2)c1", "class 2"],
  ["O=C(/C=C/c1ccco1)c1ccc(Nc2nc(Nc3ccc(F)cc3)nc(Nc3ccc(Cl)cc3)n2)cc1", "class 1"]
]}
